Provide the recorded Post-emerge Herbicidal Activity DIGSA for the entries that follow.
- Test system: large crabgrass (Digitaria sanguinalis, DIGSA)
- TEST SUMMARY: Post-emerge test, greenhouse herbicide activity screening
- Format: in vivo
- MEASUREMENT CONTEXT: 250 g ai/ha; phytotoxicity rating 0-100 (0 no damage, 100 complete death), 14 days after application

GET Post-emerge Herbicidal Activity DIGSA | system: large crabgrass (Digitaria sanguinalis, DIGSA) | item: `COc1c(Cl)cc(F)c(-n2c(=O)cc(C(F)(F)F)n(C)c2=O)c1NC(=O)C(C)(C)C`
0

Enter measured Post-emerge Herbicidal Activity DIGSA, system large crabgrass (Digitaria sanguinalis, DIGSA), for the molecule shown: `CCc1ccc(C(=O)Nc2c(OC)c(Cl)cc(F)c2-n2c(=O)cc(C(F)(F)F)n(C)c2=O)cc1`
70

Specify the recorded Post-emerge Herbicidal Activity DIGSA for `CCOC(=O)COc1c(Cl)cc(F)c(-n2c(=O)cc(C(F)(F)F)n(C)c2=O)c1N` , system: large crabgrass (Digitaria sanguinalis, DIGSA).
40

Would you please give the reported Post-emerge Herbicidal Activity DIGSA of `Cn1c(C(F)(F)F)cc(=O)n(-c2c(F)cc(Cl)c(OCC#N)c2N)c1=O` with large crabgrass (Digitaria sanguinalis, DIGSA)?
50

Param request: Post-emerge Herbicidal Activity DIGSA | system large crabgrass (Digitaria sanguinalis, DIGSA) | item `CCn1c(C(F)(F)F)cc(=O)n(-c2c(F)cc(Cl)c(OC)c2N)c1=O`
0

System large crabgrass (Digitaria sanguinalis, DIGSA). Read-out Post-emerge Herbicidal Activity DIGSA. Item `COC(=O)C=CCOc1c(Cl)cc(F)c(-n2c(=O)cc(C(F)(F)F)n(C)c2=O)c1N` . Report value.
20

Jot down Post-emerge Herbicidal Activity DIGSA (large crabgrass (Digitaria sanguinalis, DIGSA)) of CCOC(=O)C(C)Nc1c(OC)c(Cl)cc(F)c1-n1c(=O)cc(C(F)(F)F)n(C)c1=O (centres unmarked) .
30

Please look at `COc1c(Cl)cc(F)c(-n2c(=O)cc(C(F)(F)F)n(C)c2=O)c1N=C(Cl)C(Cl)(Cl)Cl` and tell me its recorded Post-emerge Herbicidal Activity DIGSA on large crabgrass (Digitaria sanguinalis, DIGSA).
0

Check large crabgrass (Digitaria sanguinalis, DIGSA) data and give Post-emerge Herbicidal Activity DIGSA for `Cn1c(C(F)(F)F)cc(=O)n(-c2c(N)cc(OC(F)F)cc2F)c1=O` .
20

Give reported Post-emerge Herbicidal Activity DIGSA for `COc1c(Cl)cc(F)c(-n2c(=O)cc(C(F)(F)F)n(C)c2=O)c1NC(=O)c1ccc(C)c(C)c1` (large crabgrass (Digitaria sanguinalis, DIGSA))
70

Provide measured Post-emerge Herbicidal Activity DIGSA on large crabgrass (Digitaria sanguinalis, DIGSA) for `COc1c(Cl)cc(F)c(-n2c(=O)cc(C(F)(F)F)n(C)c2=O)c1NC(=O)CC#N` please.
0

###

- Tested on: redroot pigweed (Amaranthus retroflexus, AMARE)
- TEST SUMMARY: Post-emerge test, greenhouse herbicide activity screening
- Assay type: in vivo
- MEASUREMENT CONTEXT: Amaranthus retroflexus, post-emergence, 336 h; post-emerge, 63 g ai/ha, phytotoxicity rating 0-100 at 14 days after application; read-out: Post-emerge Herbicidal Activity AMARE
MEASURE: pest or weed control at 63 g/ha (%)
Report the value in % with no unit label.

Return value of pest or weed control at 63 g/ha for input `COc1c(Cl)cc(F)c(-c2nn(C)c(C(F)(F)F)c2Cl)c1NC(=O)C=Cc1ccccc1` , no commentary.
100

Note pest or weed control at 63 g/ha for the molecule shown: `Cc1nn(-c2c(Cl)cc(Cl)c(N)c2N)c(=O)n1C(F)F`
0

State its pest or weed control at 63 g/ha for this molecule: `Cc1nn(-c2c(F)cc(Cl)cc2NC(=O)c2ccc3ccccc3c2)c(=O)n1C(F)F`
0

Give pest or weed control at 63 g/ha for `COc1c(Cl)cc(Cl)c(-n2nc(C)n(C(F)F)c2=O)c1NC(=O)c1ccc2ccccc2c1`
60

Hello, the source for this data is patent US6355799B1, in case you need it.
